assay: Analyte levels in screening and baseline plasma and urine (low phytochemical diet check); details: uncontrolled diet, before any CAP
measure_name: Plasma concentration at screening visit (ng/mL)

{"compound": "O=C(O)CCc1ccc(O)c(O)c1 [DHCA, dihydrocaffeic acid]", "measurement": 0.3}
{"compound": "O=C(O)/C=C/c1ccc(O)c(O)c1", "measurement": 0.8}
{"compound": "COc1ccc(/C=C/C(=O)O)cc1O", "measurement": 2.3}
{"compound": "O=C(O)CCc1cccc(O)c1 [HPP, 3-(3-hydroxyphenyl)propionic acid]", "measurement": 49.6}
{"compound": "COc1cc(CCC(=O)O)ccc1O [DHFA, dihydroferulic acid]", "measurement": 6.6}

====

test: Plasma pharmacokinetics after single oral administration of CAP; conditions: human, plasma, po, 4 g
Below, each entry is listed with its recorded Cmax.

{"compound": "COc1cc(CCC(=O)O)ccc1O [DHFA, dihydroferulic acid]", "Cmax [ng/mL]": 20}
{"compound": "C[C@H]1[C@H](C)CC[C@]2(C(=O)O)CC[C@]3(C)C(=CC[C@@H]4[C@@]5(C)C[C@@H](O)[C@H](O)[C@@](C)(CO)[C@@H]5CC[C@]43C)[C@H]12", "Cmax [ng/mL]": 259}
{"compound": "COc1ccc(/C=C/C(=O)O)cc1O", "Cmax [ng/mL]": 2}
{"compound": "O=C(O)CCc1ccc(O)c(O)c1 [DHCA, dihydrocaffeic acid]", "Cmax [ng/mL]": 2}

====

assay: Plasma pharmacokinetics after single oral administration of CAP; settings: human, plasma, oral, 2 g
measure_name: Cmax (ng/mL)

{"input_smiles": "C[C@H]1[C@H](C)CC[C@]2(C(=O)O)CC[C@]3(C)C(=CC[C@@H]4[C@@]5(C)C[C@@H](O)[C@H](O)[C@@](C)(CO)[C@@H]5[C@H](O)C[C@]43C)[C@H]12", "measure_name": "Cmax", "unit_abbreviation": "ng/mL", "measurement": 32}
{"input_smiles": "C[C@H]1[C@H](C)CC[C@]2(C(=O)O)CC[C@]3(C)C(=CC[C@@H]4[C@@]5(C)C[C@@H](O)[C@H](O)[C@@](C)(CO)[C@@H]5CC[C@]43C)[C@H]12", "measure_name": "Cmax", "unit_abbreviation": "ng/mL", "measurement": 99}

====

test: Plasma pharmacokinetics after single oral administration of CAP; conditions: human, plasma, po, 4 g
Outcome: 1 (yes) for half-life of at least 2 h; 0 (no) for anything lower.

{"compound": "C[C@H]1[C@H](C)CC[C@]2(C(=O)O)CC[C@]3(C)C(=CC[C@@H]4[C@@]5(C)C[C@@H](O)[C@H](O)[C@@](C)(CO)[C@@H]5CC[C@]43C)[C@H]12", "group": "1 (yes)"}
{"compound": "COc1ccc(/C=C/C(=O)O)cc1O", "group": "1 (yes)"}
{"compound": "COc1cc(CCC(=O)O)ccc1O [DHFA, dihydroferulic acid]", "group": "1 (yes)"}
{"compound": "C[C@H]1[C@H](C)CC[C@]2(C(=O)O)CC[C@]3(C)C(=CC[C@@H]4[C@@]5(C)C[C@@H](O)[C@H](O)[C@@](C)(CO)[C@@H]5[C@H](O)C[C@]43C)[C@H]12", "group": "0 (no)"}
{"compound": "O=C(O)CCc1ccc(O)c(O)c1 [DHCA, dihydrocaffeic acid]", "group": "0 (no)"}
{"compound": "O=C(O)CCc1cccc(O)c1 [HPP, 3-(3-hydroxyphenyl)propionic acid]", "group": "0 (no)"}
{"compound": "O=C(O)/C=C/c1ccc(O)c(O)c1", "group": "1 (yes)"}

Reference for the values: paper PMC8868383
